Values compiled from ChEMBL document CHEMBL4680100.

Documented solubility kinetic across a set of compounds
# testSummary: Kinetic solubility of compound at pH 6.5 phosphate buffer by nephelometry
# Format: physicochemical
# runConditions: read-out: Kinetic_solubility
# unit: µg/mL | format: bare number

Some entries whose results are on file:
[
  {
    "compound": "CN1C(=O)N(c2ccc(F)c(C(F)(F)F)c2)C(=O)C1(C)C",
    "solubility kinetic [µg/mL]": 50
  },
  {
    "compound": "O=C1NC2(CCCC2)C(=O)N1c1ccc(F)c(C(F)(F)F)c1",
    "solubility kinetic [µg/mL]": 50
  },
  {
    "compound": "CC1(CO)NC(=O)N(c2ccc(F)c(C(F)(F)F)c2)C1=O (stereo not given)",
    "solubility kinetic [µg/mL]": 25
  }
]

Next compound, please.
Recorded result, CC1(C)NC(=O)N(c2ccc([N+](=O)[O-])c(C(F)(F)F)c2)C1=O [NILUTAMIDE] , solubility kinetic: 50
